Where do these numbers come from? They come from patent US20240254138A1.

tested.on: CDK7/cyclinH/MAT1 trimeric complex (Homo sapiens, UniProt P50613)
Sequence (P50613 whole entry): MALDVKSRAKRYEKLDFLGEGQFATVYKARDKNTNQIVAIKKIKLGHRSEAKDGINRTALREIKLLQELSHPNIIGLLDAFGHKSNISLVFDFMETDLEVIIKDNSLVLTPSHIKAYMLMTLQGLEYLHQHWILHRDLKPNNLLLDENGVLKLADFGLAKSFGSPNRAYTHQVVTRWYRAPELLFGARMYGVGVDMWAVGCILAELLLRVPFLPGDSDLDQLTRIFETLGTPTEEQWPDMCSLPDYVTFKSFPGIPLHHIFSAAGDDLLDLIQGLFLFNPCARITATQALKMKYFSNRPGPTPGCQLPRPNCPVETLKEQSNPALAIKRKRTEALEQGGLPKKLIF
Sequence (P51946 whole entry partner): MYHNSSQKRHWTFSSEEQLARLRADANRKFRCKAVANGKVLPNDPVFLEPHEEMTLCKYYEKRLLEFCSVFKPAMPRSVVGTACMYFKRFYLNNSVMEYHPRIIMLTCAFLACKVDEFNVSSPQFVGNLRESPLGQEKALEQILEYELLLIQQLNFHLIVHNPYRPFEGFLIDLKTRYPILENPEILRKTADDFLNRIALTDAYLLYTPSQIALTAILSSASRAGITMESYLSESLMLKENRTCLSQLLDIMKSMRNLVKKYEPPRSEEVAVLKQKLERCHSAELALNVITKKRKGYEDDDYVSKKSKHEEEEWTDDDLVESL
Sequence (P51948 whole entry partner): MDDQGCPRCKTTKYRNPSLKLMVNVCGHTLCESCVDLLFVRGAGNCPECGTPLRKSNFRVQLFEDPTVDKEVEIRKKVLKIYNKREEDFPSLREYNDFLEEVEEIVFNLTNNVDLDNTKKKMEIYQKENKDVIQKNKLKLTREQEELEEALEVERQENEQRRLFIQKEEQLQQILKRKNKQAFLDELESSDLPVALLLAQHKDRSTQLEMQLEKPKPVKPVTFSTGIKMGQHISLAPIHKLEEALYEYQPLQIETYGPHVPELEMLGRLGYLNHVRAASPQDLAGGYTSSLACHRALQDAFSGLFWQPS
protocol.summary: In vitro CDK7 assay, potency of irreversible covalent inhibitors (kinact/KI), coupled PK/LDH ADP readout at 340 nm
measurement.parameters: read-out: CDK7 (20 nM enz.) (kinact/KI, M^−1*s^−1), 20 nM enzyme
assay.metric: kinact/KI (M⁻¹ s⁻¹)

Here's what some known entries look like.
CC#CC(=O)N1CCC(N2CC(c3cc4c(c(C5CC5)n3)OCc3c(N5CCOCC5)ccnc3N4)C2)CC1 | 486
C=CC(=O)N1CC(N2CC(c3cc4c(c(CCC)n3)OCc3c(N5CCOCC5)ccnc3N4)C2)C1 | 1760
C=CC(=O)N1CC(N2CCC(c3ccc4c(c3)Nc3nccc(C5CCOCC5)c3CO4)CC2)C1 | 1390

A. C=CC(=O)N1CC(N2CCC(c3cc4c(cn3)O[C@@H](C)c3c(N5CCOCC5)ccnc3N4)CC2)C1 (single isomer, unassigned) [Compound 172]
B. C=CC(=O)N1CC(N2CCC(c3ccc4c(c3)Nc3nccc(C5CCOCC5)c3[C@H](C)O4)CC2)C1 (single isomer, unassigned) [Compound 104]
Between A and B , whose measured kinact/KI reads higher? Answer by quoting the chosen item's label. B

----------
tested.on: CDK7/cyclinH/MAT1 trimeric complex (Homo sapiens, UniProt P50613)
protocol.summary: In vitro CDK7 assay, potency of irreversible covalent inhibitors (kinact/KI), coupled PK/LDH ADP readout at 340 nm
measurement.parameters: read-out: CDK7 (20 nM enz.) (kinact, s^−1), 20 nM enzyme
assay.metric: kinact (s⁻¹)

P. C=CC(=O)N1CCC(N2CC(c3cc4c(c(C(F)(F)F)c3)OCc3c(-c5cnn(C)c5)ccnc3N4)C2)CC1
Q. C#Cc1cc2c(cc1C1CCN(C3CN(C(=O)C=C)C3)CC1)Nc1nccc(N3CCOCC3)c1[C@@H](C)O2 (single isomer, unassigned)
R. Cc1nc(C2CCN([C@H]3CCN(C(=O)/C=C/C(=O)O)C3)CC2)cc2c1OCc1c(-c3cnn(C)c3)ccnc1N2 (single isomer, unassigned)
Put the items in sequence by kinact, from largest down. In your reply, arrange the labels in the requested order. Q, P, R
(Q: 7.18e-05 s⁻¹, P: 4.38e-05 s⁻¹, R: 2.19e-05 s⁻¹)

A. C=CC(=O)N1CCC(N2CCC(c3ccc4c(c3)Nc3nccc(N5CCS(=O)(=NC)CC5)c3CO4)CC2)CC1
B. CC#CC(=O)N1CCC(N2CC[C@@H](c3cc4c(c(C)n3)OCc3c(N5CCOCC5)ccnc3N4)C2)CC1 (single isomer, unassigned)
Of A and B , which one carries the higher reported kinact? Refer to your chosen item by its label in the answer. A
(A: 4.87e-05 s⁻¹, B: 1.89e-05 s⁻¹)

----------
tested.on: CDK7/cyclinH/MAT1 trimeric complex (Homo sapiens, UniProt P50613)
protocol.summary: In vitro CDK7 assay, potency of irreversible covalent inhibitors (kinact/KI), coupled PK/LDH ADP readout at 340 nm
measurement.parameters: 20 nM enzyme
assay.metric: CDK7 (20 nM enz.) (kinact/KI, M^−1*s^−1) (M⁻¹ s⁻¹)

These recorded examples may help you get a feel for the data.
C=CC(=O)N1CC(N2CCC(c3cc4c(c(C)n3)OCc3c(-c5cnn(C)c5)ccnc3N4)CC2)C1 [Compound 314] | 602.565
C=CC(=O)N1CCC(N2CC(c3cc4c(c(C(F)(F)F)n3)OCc3c(N5CCOCC5)ccnc3N4)C2)CC1 [Compound 453] | 439.69
C=CC(=O)N1CC(N2CC[C@H](c3ccc4c(c3)Nc3nccc(N5CCOCC5)c3CO4)[C@@H](F)C2)C1 [Compound 110] | 253.792
CC#CC(=O)N1CC(N2CC(c3cc4c(c(C)n3)O[C@H](C)c3c(N5CCOCC5)ccnc3N4)C2)C1 (single isomer, unassigned) [compound 444] | 242.644
C=CC(=O)N1CC(N2CCC(c3cc(Cl)c4c(c3)Nc3nccc(N5CCS(=O)(=O)CC5)c3CO4)CC2)C1 [Compound 115] | 1193.86
C=CC(=O)N1CC(N2CC(c3cc4c(c(C)n3)OCc3c(N5CCOCC5)ccnc3N4)C2)C1 [Compound 205] | 399.588
C=CC(=O)N1CC[C@@H](N2CC(c3cc4c(c(C5CC5)n3)OCc3c(N5CCOCC5)ccnc3N4)C2)C1 (single isomer, unassigned) [Compound 427] | 1751.84
C=CC(=O)N1CC[C@H](N2CC(c3cc4c(c(C(F)(F)F)n3)O[C@H](C)c3c(N5CCOCC5)ccnc3N4)C2)C1 (single isomer, unassigned) [Compound 501] | 15.2689

I. C=CC(=O)N1CC[C@@H](N2CCC(c3cc4c(c(C)n3)OCc3c(N5CCOCC5)ccnc3N4)CC2)C1 (single isomer, unassigned) [Compound 363]
II. C=CC(=O)N1CC(N2CCC(c3cc(C)c4c(c3)Nc3nccc(C5CCOCC5)c3CO4)CC2)C1 [Compound 73]
Could you kindly indicate whether I or II has the higher CDK7 (20 nM enz.) (kinact/KI, M^−1*s^−1) value? Label of pick, please. I
